System: M. tuberculosis H37Rv growth inhibition with meropenem
experiment: dose response, H37Rv, with and without meropenem (AID 434987);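 note: growth over 7 days at 37 °C before Alamar Blue read on day 9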
testConditions: measured here: IC90 with meropenem
Task for the reader: assign each of the following compounds its reported IC90.

Reported IC90 for CCc1cc(C(=O)O)c(NC(=O)/C=C/c2ccc(OC)cc2)s1 was 59.7 µM

Reported IC90 for CCN(CC)C(=O)CSc1nnc2nnc3cc(OC)ccc3n12 was 13.4 µM

Reported IC90 for Cc1cccc(C)c1-n1c(C)cc(/C=C2\C(=O)NN(c3ccccc3)C2=O)c1C was > 100 µM

Reported IC90 for O=C(Nc1ccccc1)c1c2c(nc3ccccc13)CCCC2 was > 25 µM

Reported IC90 for CCc1ccc(NC(=S)Nc2ccc3[nH]c(=O)[nH]c3c2)cc1 was > 100 µM

Reported IC90 for O=S1(=O)CCO[C@H]2Cc3ccccc3[C@H]2N1Cc1ccc(Cl)cc1 was > 100 µM

Reported IC90 for Cc1ccccc1OCC(=O)Nc1ccccc1N1CCOCC1 was > 100 µM

Reported IC90 for Cc1cc(=O)n2c(-c3ccccc3C)n[nH]c2n1 was > 100 µM

Reported IC90 for CCOc1ccc(-c2nnc(-c3cccs3)o2)cc1OCC was > 100 µM

Reported IC90 for c1ccc(-n2c3ccccc3c3ccccc32)cc1 was 22.7 µM

Reported IC90 for CCC(CC)NC(=O)CON=C1c2ccccc2-c2ccccc21 was > 100 µM

Reported IC90 for C[C@@H]1CC=C[C@H]2[C@H]1C(=O)N(Cc1ccccc1)[C@H]2c1ccc(/C=C/c2ccccc2)cc1F was > 100 µM

Reported IC90 for CCOC(=O)c1c(C)[nH]c(C)c1C(=O)COC(=O)/C=C/c1ccc(OC(F)F)cc1 was 91.4 µM

Reported IC90 for Cc1ccc(C)c(NC(=O)C2Cc3ccccc3CN2C(=O)OCc2ccccc2)c1 (configuration not stated) was > 100 µM

Reported IC90 for COc1ccc(-c2csc(NC(C)c3nc4cc(Cl)c(Cl)cc4n3CCCO)n2)cc1 (configuration not stated) was > 100 µM

Reported IC90 for O=C(CNC(=O)c1ccc(Br)cc1)NCC(=O)OCc1ccc(Cl)cc1 was > 100 µM

Reported IC90 for NC(=O)[C@@H]1CC2(CC(c3cccc(NC(=O)COc4ccc(Cl)cc4)c3)=NO2)CN1C(=O)COc1ccc(Cl)cc1 (some centres not stated) was > 100 µM

Reported IC90 for CN(C)/N=C/c1ccc(/C=N/NC(N)=S)o1 was 43.3 µM

Reported IC90 for COc1c(F)c(F)c(C(=O)Nc2c(C)cc(Br)cc2C)c(F)c1F was > 100 µM

Reported IC90 for COc1ccc(NC(=O)CSc2nc(N)c(C(=O)Nc3ccc(N(C)C)cc3)s2)cc1 was > 100 µM

Reported IC90 for CCCCN1C(=O)c2ccc(C(=O)Nc3cccc(C)c3C)cc2C1=O was > 100 µM

Reported IC90 for O=C(CC12CC3CC(CC(C3)C1)C2)NCc1ccc(F)cc1 was 10.4 µM

###

System: M. tuberculosis H37Rv growth inhibition with meropenem
experiment: dose response, H37Rv, with and without meropenem (AID 434987);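 note: growth over 7 days at 37 °C before Alamar Blue read on day 9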
testConditions: M. tuberculosis H37Rv growth inhibition; measured here: IC50 without meropenem
Task for the reader: assign each of the following compounds its reported IC50.

Reported IC50 for Cc1ccc(-c2nc3ccccc3o2)cc1NC(=S)NC(=O)/C=C/c1ccco1 was > 100 µM

Reported IC50 for COc1cccc(C(=O)C2CCCN(Cc3ccccn3)C2)c1 (stereo not drawn) was 16.2 µM

Reported IC50 for NC(=O)C1CCCN(C(=O)c2ccc(NC(=O)c3cccs3)cc2)C1 (stereo not drawn) was > 100 µM

Reported IC50 for C=CCNC1=C(Cl)C(=O)N(c2cccc(Cl)c2Cl)C1=O was 46.5 µM

Reported IC50 for CCCc1c(C)nc2c(OC)cccc2c1SCC(=O)O was > 100 µM

Reported IC50 for COc1cc(C(=O)NNC(=O)c2cc(-c3ccccc3)n[nH]2)cc(OC)c1C was > 100 µM

Reported IC50 for COC(=O)C1=C(C)NC(=O)/C1=C\c1cc(C)n(-c2cc(C)cc(C)c2)c1C was 97.9 µM

Reported IC50 for NC(N)=NS(=O)(=O)c1ccc(N)cc1 was > 100 µM

Reported IC50 for CCOC(=O)c1sc(NC(=O)CN2CCCC2)c(C(=O)OCC)c1C was > 100 µM

Reported IC50 for O=C(CCNc1ccc(F)cc1)c1cccc([N+](=O)[O-])c1 was > 100 µM

Reported IC50 for COc1ccc(Cn2c(=O)[nH]c3cc(C(=O)N4CCN(c5ccccc5F)CC4)ccc3c2=O)cc1 was > 100 µM

Reported IC50 for CCC(C)NCCOCCOc1ccc(Cl)c2ccccc12 (stereo not drawn) was 38.3 µM

Reported IC50 for Cc1ccnn1CC(=O)N/N=C/c1ccc([N+](=O)[O-])s1 was 88.5 µM

Reported IC50 for C/C(=N\NC(=O)c1csc2ccccc12)c1ccc(O)cc1 was > 100 µM

Reported IC50 for COc1ccc(OC)c(NC(=O)CS(=O)(=O)c2ccccc2)c1 was 28.7 µM

Reported IC50 for O=C(CN(Cc1ccco1)C(=O)c1cccc(Cl)c1)Nc1c(Cl)cc(Cl)cc1Cl was > 100 µM

Reported IC50 for COc1ccc(-c2cc(C(F)F)nc(-n3nc(C)cc3C)n2)cc1 was 47.4 µM

Reported IC50 for COc1ccc(NC(=O)C/C(C)=N/NC(=O)c2cnccn2)cc1 was > 100 µM

Reported IC50 for COC(=O)c1ccc(-c2cc(C(=O)O)c3cc4c(cc3n2)OCCO4)cc1 was > 100 µM

Reported IC50 for CCOc1ccc(S(=O)(=O)N(C(=O)c2ccco2)c2cc3sc(=O)oc3c3ccccc23)cc1 was 41.8 µM

Reported IC50 for BrC(=C\c1ccccc1)/C=N/N1CCN(c2ccccn2)CC1 was > 100 µM

Reported IC50 for COc1cc(/C=N/NC(=S)Nc2cccc(S(=O)(=O)N(C)C)c2)cc(OC)c1O was > 100 µM

Reported IC50 for O=C(Cn1c(=O)n(CCCC(=O)NC2CCCC2)c(=O)c2ccccc21)NCCC1=CCCCC1 was > 100 µM

Reported IC50 for C[C@@H]1CC=C[C@H]2[C@H]1C(=O)N(Cc1ccccc1)[C@H]2c1ccc(/C=C/c2ccccc2)cc1F was > 100 µM

Reported IC50 for C=CCC(Nc1ccccc1)C12C=CC(O1)C(C(=O)OC)=C2C(=O)OC (stereo not drawn) was > 100 µM

Reported IC50 for COCCSc1nc2sc3c(c2c(=O)n1-c1ccccc1)CCN(C)C3 was 41.9 µM

Reported IC50 for Cc1cccc(NC(=O)c2nc[nH]c2C(=O)N[C@@H](CC(C)C)C(=O)OCc2ccccc2)c1 was 26.1 µM

Reported IC50 for CCc1cc2c(=O)oc(-c3ccccc3F)nc2s1 was > 100 µM

Reported IC50 for CCCCC(=O)Nc1ccc(NC(=S)NC(=O)CCCCl)cc1OC was 94.9 µM

Reported IC50 for Cc1c(-c2ccccc2)sc(Br)c1C(=O)N1CCOCC1 was > 100 µM

Reported IC50 for C=CCSc1nnc2c(n1)OC(c1c(C)[nH]n(-c3ccccc3)c1=O)Nc1ccccc1-2 (stereo not drawn) was > 100 µM

Reported IC50 for COc1ccc(C2CC(c3c(-c4ccccc4)c4cc(Cl)ccc4[nH]c3=O)=NN2S(C)(=O)=O)cc1 (stereo not drawn) was > 100 µM

Reported IC50 for COc1ccc(C(=O)Nc2ccc(C(=O)OCC(=O)c3ccccc3)cc2)cc1 was > 100 µM

Reported IC50 for O=C(N/N=C/c1c(O)n(Cc2ccc(F)cc2)c(=S)[nH]c1=O)c1ccncc1 was 11.5 µM

Reported IC50 for CC(C)Cn1c2c(c(O)c(C(=O)Nc3nccs3)c1=O)CCCC2 was 45.7 µM

Reported IC50 for Nc1n[nH]c(N)c1N=Nc1cccc(F)c1 was > 100 µM

Reported IC50 for O=C1C2ON(c3ccc(Br)cc3)C(c3cccnc3)C2C(=O)N1C1CCCCC1 (stereo not drawn) was > 100 µM

Reported IC50 for CN(C)c1ccc(N=Nc2cccc3ccoc23)cc1 was > 100 µM

Reported IC50 for CCN(Cc1ccncc1)C(=O)C(CO)c1ccccc1 (stereo not drawn) was > 100 µM

Reported IC50 for O=C1Nc2c(ccc(Cl)c2Cl)C(=O)C1(F)c1ccccc1 (stereo not drawn) was 95.6 µM

Reported IC50 for Cc1ccccc1C(=O)Oc1ccccc1N1C(=O)C2CC=CCC2C1=O (stereo not drawn) was > 100 µM

Reported IC50 for O=C(CN1CCN(c2ccccn2)CC1)Nc1ccc(Cl)c(C(F)(F)F)c1 was 90.1 µM

Reported IC50 for CCOc1cc(C(=O)N2CCC(CC3CC(c4ccccc4)=NO3)(C(=O)NCc3ccc(OC)cc3)CC2)cc(OCC)c1OCC (stereo not drawn) was > 100 µM

###

System: M. tuberculosis H37Rv growth inhibition with meropenem
experiment: dose response, H37Rv, with and without meropenem (AID 434987);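 note: growth over 7 days at 37 °C before Alamar Blue read on day 9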
testConditions: measured here: IC90 with meropenem
experimentalReadout: IC90

Reported IC90 for COc1ccc(CNC(=O)C2CCN(S(=O)(=O)c3c(C)noc3/C=C/N(C)C)CC2)cc1 was > 100 µM

Reported IC90 for BrC(=C\c1ccccc1)/C=N/N1CCN(c2ccccn2)CC1 was > 100 µM

Reported IC90 for CCOCC(=O)Nc1cc(C(F)(F)F)ccc1Oc1cccc(Br)c1 was > 100 µM

Reported IC90 for CC(C)c1ccc(S(=O)(=O)N2CCN(C(C)C(=O)NC3CCCC3)CC2)cc1 (stereo unspecified) was > 100 µM

Reported IC90 for CC(=O)Nc1cccc(-n2nnc(SCC(=O)Nc3ccc(F)c(Cl)c3)n2)c1 was > 100 µM

Reported IC90 for C=CCN=c1scc(-c2ccc(F)cc2)n1/N=C/c1ccccn1 was 71.7 µM

Reported IC90 for COc1ccc(-c2nn(-c3ccccc3)cc2C(=O)Nc2nccs2)cc1OC was > 100 µM

Reported IC90 for CCN(CC)C(=O)C1CCCN(c2ccc([N+](=O)[O-])cc2/C=N/NC(=O)c2cccc([N+](=O)[O-])c2)C1 (stereo unspecified) was > 100 µM

Reported IC90 for CCOC(=O)COc1ccc2nsnc2c1 was 26 µM

Reported IC90 for CCC(=O)N1CCN(c2ccc(NC(=S)NC(=O)c3ccc(OC)c([N+](=O)[O-])c3)cc2)CC1 was 67.8 µM

Reported IC90 for CSc1ncc(Cl)c(C(=O)Nc2cccc3ccccc23)n1 was > 100 µM

Reported IC90 for C/C(=N/NC(=O)c1ccc(Cl)s1)c1ccc(NC(=O)COc2ccc(Cl)cc2)cc1 was > 100 µM

Reported IC90 for CCC(CC)Nc1ccc(C(CC(N)=O)NC(=O)c2ccccc2)cc1[N+](=O)[O-] (stereo unspecified) was > 100 µM

Reported IC90 for CCOC(=O)N1CCN(C(=O)CSc2nnc(-c3ccccc3OC)o2)CC1 was > 100 µM

Reported IC90 for CCOC(=O)c1nn(-c2ccc(F)cc2)c2nc(Nc3ccccc3)cc(=O)n12 was > 100 µM

Reported IC90 for CC1(C)CC(CCNC(=O)CCl)(c2ccccc2)CCO1 (stereo unspecified) was 8.14 µM

Reported IC90 for Fc1ccc(-c2csc(NC(=S)Nc3ccccc3)n2)cc1 was > 50 µM

Reported IC90 for CN(c1ccc(OCC(=O)OCC(=O)c2c(N)n(C)c(=O)n(C)c2=O)cc1)S(=O)(=O)c1ccc2ccccc2c1 was > 100 µM

Reported IC90 for Cc1ccc(-c2nc3ccccc3o2)cc1NC(=S)NC(=O)/C=C/c1ccco1 was > 100 µM

Reported IC90 for Cc1ccc(NC(=O)CSc2nnc([C@@H]3CCCN3C(=O)OC(C)(C)C)o2)c(C)c1 was > 100 µM

Reported IC90 for Cc1ccc2[nH]c(O)c(N=Nc3nc4ccccc4s3)c2c1 was > 100 µM
